Dear all, this message contains IC50 results, target or system Sentrin-specific protease 6 (Homo sapiens, UniProt Q9GZR1).
*1 amine or outer side, *2 acyl side, *3 side chain or, on linkers, in order; H or OH if unused. Where a SMILES comes first, the peptide text is derived from it. [ ]: non-standard residue; d: D form. The star is where a group is joined. ξ: configuration not given here. ξThr(3S) = C[C@H](O[*:3])C(N[*:1])C(=O)[*:2]; X2 = O=C(CN*)COC(=O)c1c2ccccc2cc2ccccc12; X1 = O=C(Cc1ccc(O)c([N+](=O)[O-])c1)*

Recorded IC50, per entry:
compound	observed_measurement
O=C(O)c1cccc(C(=O)NCc2ccc(C(=O)NNC(=O)[C@H]3O[C@@H]3C(=O)N(Cc3cccc4ccccc34)Cc3cccc4ccccc34)cc2)c1 [VEA-260]	> 100 µM
C[C@H](O)C(NC(=O)[C@H](CCC(N)=O)NC(=O)[C@H](CCC(N)=O)NC(=O)Cc1ccc(O)c([N+](=O)[O-])c1)C(=O)NCC(=O)NCC(=O)COC(=O)c1c2ccccc2cc2ccccc12 (stereo partly drawn) [VEA-500] (X1-QQ[ξThr(3S)]G-X2)	> 40 µM
NC(=O)[C@H](CC(=O)O)NC(=O)c1ccc(C(=O)NNC(=O)[C@H]2O[C@@H]2C(=O)N(Cc2cccc3ccccc23)Cc2cccc3ccccc23)cc1 [VEA-422]	> 100 µM
CC(C)C[C@H](NC(=O)Cc1ccc(O)c([N+](=O)[O-])c1)C(=O)N[C@@H](CCCNC(=N)N)C(=O)NCC(=O)NCC(=O)COC(=O)c1c2ccccc2cc2ccccc12 [VEA-561]	4.2 µM
O=C(O)CN(NC(=O)c1ccc(CNC(=O)c2cccc(C(=O)O)c2)cc1)C(=O)[C@H]1O[C@@H]1C(=O)N(Cc1cccc2ccccc12)Cc1cccc2ccccc12 [JCP-666]	> 100 µM

Given item C[C@H](O)C(NC(=O)[C@H](CCC(N)=O)NC(=O)Cc1ccc(O)c([N+](=O)[O-])c1)C(=O)NCC(=O)NCC(=O)COC(=O)c1c2ccccc2cc2ccccc12 (stereo partly specified) [VEA-499] , the value recorded as its IC50 is > 60 µM

----------
# test_target: Sentrin-specific protease 7 (Homo sapiens)
# Sequence (Q9BQF6 whole entry): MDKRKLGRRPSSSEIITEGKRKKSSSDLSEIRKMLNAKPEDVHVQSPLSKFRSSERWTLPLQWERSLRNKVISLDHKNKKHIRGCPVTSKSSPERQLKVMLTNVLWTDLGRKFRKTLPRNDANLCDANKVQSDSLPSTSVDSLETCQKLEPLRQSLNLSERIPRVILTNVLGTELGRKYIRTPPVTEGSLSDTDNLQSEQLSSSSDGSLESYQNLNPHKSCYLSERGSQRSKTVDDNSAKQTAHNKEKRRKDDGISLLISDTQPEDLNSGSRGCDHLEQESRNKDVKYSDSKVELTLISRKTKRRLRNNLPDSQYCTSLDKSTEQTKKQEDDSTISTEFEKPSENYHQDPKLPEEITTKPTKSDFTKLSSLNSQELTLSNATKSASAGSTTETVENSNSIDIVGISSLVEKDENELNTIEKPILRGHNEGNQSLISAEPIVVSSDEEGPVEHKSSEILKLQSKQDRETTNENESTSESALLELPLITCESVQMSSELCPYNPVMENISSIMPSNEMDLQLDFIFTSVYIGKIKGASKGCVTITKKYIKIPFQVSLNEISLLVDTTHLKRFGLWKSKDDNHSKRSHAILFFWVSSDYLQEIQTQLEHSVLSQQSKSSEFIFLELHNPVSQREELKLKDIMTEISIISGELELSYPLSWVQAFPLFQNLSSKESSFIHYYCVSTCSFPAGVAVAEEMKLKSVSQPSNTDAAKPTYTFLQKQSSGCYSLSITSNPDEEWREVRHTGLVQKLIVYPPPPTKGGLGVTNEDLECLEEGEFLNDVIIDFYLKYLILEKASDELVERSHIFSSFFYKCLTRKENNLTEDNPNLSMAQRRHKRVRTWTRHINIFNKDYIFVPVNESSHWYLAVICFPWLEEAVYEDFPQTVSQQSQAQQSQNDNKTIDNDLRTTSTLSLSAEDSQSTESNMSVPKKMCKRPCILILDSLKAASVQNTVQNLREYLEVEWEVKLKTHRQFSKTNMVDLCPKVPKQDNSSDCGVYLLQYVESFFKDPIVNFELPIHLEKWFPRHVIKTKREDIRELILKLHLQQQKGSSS
# experimental_details: Fluorogenic Assay
# experimental_setup: pH 8; 37 °C
pIC50: −log10 of the molar value. *1 amine or outer side, *2 acyl side, *3 side chain or, on linkers, in order; H or OH if unused. Where a SMILES comes first, the peptide text is derived from it. [ ]: non-standard residue; d: D form. The star is where a group is joined. ξ: configuration not given here. ξThr(3S) = C[C@H](O[*:3])C(N[*:1])C(=O)[*:2]; X2 = O=C(CN*)COC(=O)c1c2ccccc2cc2ccccc12; X1 = O=C(Cc1ccc(O)c([N+](=O)[O-])c1)*
Measured pIC50 by item

Recorded pIC50, per entry:
molecule	observed_measurement
NC(=O)[C@H](CC(=O)O)NC(=O)c1ccc(C(=O)NNC(=O)[C@H]2O[C@@H]2C(=O)N(Cc2cccc3ccccc23)Cc2cccc3ccccc23)cc1	< 4.15
CC(C)C[C@H](NC(=O)Cc1ccc(O)c([N+](=O)[O-])c1)C(=O)N[C@@H](CCCNC(=N)N)C(=O)NCC(=O)NCC(=O)COC(=O)c1c2ccccc2cc2ccccc12	5.37
C[C@H](O)C(NC(=O)[C@H](CCC(N)=O)NC(=O)[C@H](CCC(N)=O)NC(=O)Cc1ccc(O)c([N+](=O)[O-])c1)C(=O)NCC(=O)NCC(=O)COC(=O)c1c2ccccc2cc2ccccc12 (stereo partly drawn) [VEA-500] (X1-QQ[ξThr(3S)]G-X2)	< 4.00
C[C@H](O)C(NC(=O)[C@H](CCC(N)=O)NC(=O)Cc1ccc(O)c([N+](=O)[O-])c1)C(=O)NCC(=O)NCC(=O)COC(=O)c1c2ccccc2cc2ccccc12 (stereo not given in full)	< 4.00

Please find the next molecule below.
Here O=C(CNC(=O)c1ccc(CNC(=O)c2cccc(C(=O)O)c2)cc1)COC(=O)c1c2ccccc2cc2ccccc12 was tested on Sentrin-specific protease 7 (Homo sapiens), and its pIC50 came to < 4.70
